- Test system: SK-MEL-2 melanoma
- Protocol Notes: NCI tumour cell line growth inhibition, 48 h
Measured Attribute: log10(TGI) (log10 of the value in µM)
log10 TGI, µM

O=C(CSc1nc2ccc(I)cc2c(=O)n1Cc1ccccc1)Nc1ccccc1 = 1.64
C=C1C(=O)O[C@@H]2/C=C(/C)[C@@H](OC(C)=O)C[C@@H](O)/C(C)=C\[C@@H](OC(=O)[C@]3(C)O[C@@H]3C)[C@@H]12 = 1.53
N=C1C=CC(=C(c2ccc(N)cc2)c2ccc(N)cc2)C=C1 = 1.02
COCC(C#N)NC1CC(OC2CC(O)(C(=O)CO)Cc3c(O)c4c(c(O)c32)C(=O)c2c(OC)cccc2C4=O)OC(C)C1O (stereo not given) = -0.50
N=C(N)SCc1nc(-c2ccc(Cl)cc2)no1 = 1.62

Enquiry: Return the recorded log10(TGI) value; entry: "O=C1C(c2ccccc2)=C(c2ccccc2)C1(Cl)Cl"
Return: 0.94
